Tested on: platelet aggregation induced by ADP (platelet rich plasma)
Assay: Inhibitory Effect on Platelet Aggregation in Guinea Pigs (induced by ADP)
Type: cell-based
Conditions: Cavia porcellus; guinea pig platelet rich plasma, about 400,000 platelets/μl, 37° C., ADP final concentration 1 μM, test drug added 2 minutes before ADP; read-out: Inhibition of platelet aggregation by ADP, IC50
Description: Blood was collected from abdominal aorta of male guinea pigs under anesthesia with pentobarbital (20 mg/kg, i.p.) using sodium citrate as an anticoagulant (final concentration: 0.315%). […] The number of platelet was counted at automatic platelet counter (Sysmex E2500, Toaiyo-denshi). […] Platelet aggregation was measured as follows, using an 8-channel aggregometer (NBS HEMA TRACER VI, Niko Bioscience Inc.): The PRP (250 μl) was incubated at 37° C. for 2 minutes, to n added 25 μl of a test drug solution. […]
pIC50: −log10 of the molar value.
readout.kind: pIC50

compound	pIC50
CN[C@H](CC(=O)N1CCN(c2ccncc2)CC1)C(=O)N1CCN(CC(=O)O)C(=O)[C@@H]1CC(=O)OC [compound 40]	7.24

A = COC(=O)C[C@H]1C(=O)N(CC(=O)O)CCN1C(=O)[C@H](CC(=O)N1CCN(c2ccncc2)CC1)NC(=O)OC [compound 24]
B = COC(=O)C[C@H]1C(=O)N(CC(=O)O)CCN1C(=O)[C@H](CC(=O)N1CCN(c2ccncc2)CC1)NS(=O)(=O)c1ccc(OC)cc1 [compound 33]
C = COC(=O)C[C@H]1C(=O)N(CC(=O)O)CCN1C(=O)[C@@H](CC(=O)N1CCN(c2ccncc2)CC1)NC(=O)OCOC(=O)C(C)(C)C [compound 43]
q: Please produce an ascending ranking of these compounds based on pIC50. Hello, could you send the labels back in the order asked? Thank you.
a: B, C, A
(B: 6.62, C: 7.00, A: 7.21)

====

tested on: platelet aggregation induced by ADP (platelet rich plasma); experiment: Inhibitory Effect on Platelet Aggregation in Guinea Pigs (induced by ADP); assay type: cell-based; details: Cavia porcellus; guinea pig platelet rich plasma, about 400,000 platelets/μl, 37° C., ADP final concentration 1 μM, test drug added 2 minutes before ADP; read-out: Inhibition of platelet aggregation by ADP, IC50
pIC50: −log10 of the molar value.
readout.kind: pIC50

// below: answered compounds
1. COC(=O)C[C@H]1C(=O)N(CC(=O)OC)CCN1C(=O)CCC(=O)N1CCN(c2ncccn2)CC1 7.12
2. COC(=O)C[C@H]1C(=O)N(CC(=O)OC)CCN1C(=O)CCC(=O)N1CCN(c2ccccn2)CC1 7.42
3. COC(=O)C[C@H]1C(=O)N(CC(=O)O)CCN1C(=O)[C@H](Cc1ccc(OC)cc1)NC(=O)C1CCN(c2ccncc2)CC1 7.15
4. COC(=O)C[C@H]1C(=O)N(CC(=O)O)CCN1C(=O)[C@@H](CC(=O)N1CCN(c2ccncc2)CC1)NS(=O)(=O)c1ccc(OC)cc1 7.22

I = COC(=O)C[C@H]1C(=O)N(CC(=O)OC(C)(C)C)CCN1C(=O)[C@H](CC(=O)N1CCN(c2ccncc2)CC1)NC(=O)OC(C)(C)C
II = COC(=O)C[C@H]1C(=O)N(CC(=O)O)CCN1C(=O)[C@H](CC(=O)N1CCN(c2ccncc2)CC1)NCc1ccc(OC)cc1
q: Could you point out whether the larger pIC50 belongs to I or to II ? Refer to your chosen item by its label in the answer.
a: I
